Source: patent US6919086B1

# experimental_system: IgE antibodies of the individual allergic patient serum II/3
# run_description: EAST inhibition, individual serum II/3
recorded_endpoint: allergenic potency (Prel) at 25% inhibition (relative to native Phl p 5b)
I only need the number, thanks.

Req: Any idea what allergenic potency (Prel) at 25% inhibition (relative to native Phl p 5b) was measured for rPhl p 5b point mutant PM3 (A13C) (protein) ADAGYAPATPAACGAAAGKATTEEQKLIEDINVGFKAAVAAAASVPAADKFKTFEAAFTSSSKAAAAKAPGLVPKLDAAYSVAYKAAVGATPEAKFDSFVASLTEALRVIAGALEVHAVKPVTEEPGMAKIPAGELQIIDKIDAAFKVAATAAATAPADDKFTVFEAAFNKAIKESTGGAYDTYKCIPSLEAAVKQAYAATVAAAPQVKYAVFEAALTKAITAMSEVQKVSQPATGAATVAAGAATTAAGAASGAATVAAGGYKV ?
Resp: 0.922
